tested system: Human recombinant cathepsin K (Homo sapiens)
Construct: purchased Enzo Life Sciences
Sequence (P43235 115-329): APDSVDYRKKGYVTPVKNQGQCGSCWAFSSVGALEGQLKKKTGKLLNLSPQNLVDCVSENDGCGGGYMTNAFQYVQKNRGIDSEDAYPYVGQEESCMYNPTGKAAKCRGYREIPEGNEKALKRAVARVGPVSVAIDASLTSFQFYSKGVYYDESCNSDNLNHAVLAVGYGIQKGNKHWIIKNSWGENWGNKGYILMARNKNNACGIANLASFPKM
experiment notes: Cathepsin K assay (substrate Z-Leu-Arg-AMC)
Type: biochemical
condition label: 50 µM inhibitor, 60 min; 100% = no inhibitor; n.i. = residual activity ≥ 95%; read-out: Percentage residual activity of human cathepsin K
Experimental: Cathepsin assays. Assays with human cathepsins B, S, L, and K were carried out as described previously. Stock solutions of substrates and inhibitors were prepared in DMSO. The final DMSO concentration was 2%. […] Ki values were obtained in duplicate measurements with six different inhibitor concentrations, and 60-min-progress curves were analyzed by linear regression. […]
Lab note: anything with remaining activity at 50 µM below 80% is marked criterion met; values at 80% or higher are marked criterion not met.

Solved cases below.
{"molecule smiles": "C#CCNC(=O)C1=C(C)NC(C)=C(C(=O)NCC#C)C1c1ccccc1Cl", "cat": "criterion not met"}
{"molecule smiles": "C#CCNC(=O)C1=C(C)NC(C)=C(C(=O)NCC#C)C1c1cccc2nonc12", "cat": "criterion met"}
{"molecule smiles": "C#CCN(C)C(=O)C1=C(C)NC(C)=C(C(=O)N(C)CC#C)C1c1ccccc1Cl", "cat": "criterion met"}

input: Please check: remaining activity at 50 µM for C#CCNC(=O)C1=C(C)NC(C)=C(C(=O)NCC#C)C1c1ccccc1Br , strictly under 80% or not?
output: criterion not met

====

tested system: Human isolated cathepsin L (Homo sapiens)
Construct: Human isolated cathepsin L (Enzo Life Sciences) was assayed spectrophotometrically; purchased Enzo Life Sciences
Sequence (P07711 114-333): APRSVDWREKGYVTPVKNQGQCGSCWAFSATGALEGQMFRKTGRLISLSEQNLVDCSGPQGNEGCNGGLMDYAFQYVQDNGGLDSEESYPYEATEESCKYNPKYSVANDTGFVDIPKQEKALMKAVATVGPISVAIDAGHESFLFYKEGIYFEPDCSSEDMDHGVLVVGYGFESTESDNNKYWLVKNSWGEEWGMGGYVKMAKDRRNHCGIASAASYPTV
experiment notes: Cathepsin L assay (chromogenic substrate Z-Phe-Arg-pNA)
Assay type: biochemical
condition label: 50 µM inhibitor, 60 min; 100% = no inhibitor; n.i. = residual activity ≥ 95%; read-out: Percentage residual activity of human cathepsin L
measurement name: remaining activity at 50 µM (%)
The answer is to be given in %; state only the numeric part.

Solved entries:
{"compound": "C#CCN(C)C(=O)C1=C(C)NC(C)=C(C(=O)N(C)CC#C)C1c1ccccc1Cl [4i]", "scale unit": "%", "recorded number": 91}
{"compound": "C#CCNC(=O)C1=C(C)NC(C)=C(C(=O)NCC#C)C1c1cccc2nonc12 [4d]", "scale unit": "%", "recorded number": 90}
{"compound": "C#CCNC(=O)C1=C(C)NC(C)=C(C(=O)NCC#C)C1c1ccccc1OC [4f]", "scale unit": "%", "recorded number": 86}

input: Requested read-out: remaining activity at 50 µM. Entry: C#CCN(C)C(=O)C1=C(C)NC(C)=C(C(=O)N(C)CC#C)C1c1cccc(OC)c1 [4l]
output: 88

input: Next up: C#CCNC(=O)C1=C(C)NC(C)=C(C(=O)NCC#C)C1c1cccc(Br)c1 [4h]
output: 87

input: What about this compound? C#CCN(C)C(=O)C1=C(C)NC(C)=C(C(=O)N(C)CC#C)C1c1cccc(Cl)c1Cl [4j]
output: 87

input: Another compound to check: C#CCN(C)C(=O)C1=C(C)NC(C)=C(C(=O)N(C)CC#C)C1c1ccccc1OC [4k]
output: 92

====

tested system: Human recombinant cathepsin S (Homo sapiens, UniProt P25774)
Sequence (P25774 115-331): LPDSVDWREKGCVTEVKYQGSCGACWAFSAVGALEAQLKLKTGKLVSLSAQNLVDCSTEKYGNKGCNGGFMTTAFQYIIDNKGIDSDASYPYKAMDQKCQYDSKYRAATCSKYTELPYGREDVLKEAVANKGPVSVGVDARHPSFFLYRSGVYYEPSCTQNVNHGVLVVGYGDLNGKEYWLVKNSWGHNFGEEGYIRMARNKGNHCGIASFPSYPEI
experiment notes: Cathepsin S assay (fluorogenic substrate Z-Phe-Arg-AMC)
condition label: Ki ± SEM; n.i. = no inhibition, residual activity ≥ 95% at 50 μM; read-out: CatS Ki
// reported Ki for each item listed
The answer consists of two parts: a number and, after it, its unit.

{"molecule smiles": "C#CCNC(=O)C1=C(C)NC(C)=C(C(=O)NCC#C)C1c1cccc(Br)c1", "Ki": "55.3 µM"}

input: Any idea what Ki was measured for C#CCN(C)C(=O)C1=C(C)NC(C)=C(C(=O)N(C)CC#C)C1c1ccccc1Cl ?
output: 69.3 µM
